Consider the following binders and their measured pEC50 readings.
Target: full-length beta-Catenin (Uniprot ID P35222) (Homo sapiens (Human)) (UniProt P35222)
Sequence (P35222 whole entry): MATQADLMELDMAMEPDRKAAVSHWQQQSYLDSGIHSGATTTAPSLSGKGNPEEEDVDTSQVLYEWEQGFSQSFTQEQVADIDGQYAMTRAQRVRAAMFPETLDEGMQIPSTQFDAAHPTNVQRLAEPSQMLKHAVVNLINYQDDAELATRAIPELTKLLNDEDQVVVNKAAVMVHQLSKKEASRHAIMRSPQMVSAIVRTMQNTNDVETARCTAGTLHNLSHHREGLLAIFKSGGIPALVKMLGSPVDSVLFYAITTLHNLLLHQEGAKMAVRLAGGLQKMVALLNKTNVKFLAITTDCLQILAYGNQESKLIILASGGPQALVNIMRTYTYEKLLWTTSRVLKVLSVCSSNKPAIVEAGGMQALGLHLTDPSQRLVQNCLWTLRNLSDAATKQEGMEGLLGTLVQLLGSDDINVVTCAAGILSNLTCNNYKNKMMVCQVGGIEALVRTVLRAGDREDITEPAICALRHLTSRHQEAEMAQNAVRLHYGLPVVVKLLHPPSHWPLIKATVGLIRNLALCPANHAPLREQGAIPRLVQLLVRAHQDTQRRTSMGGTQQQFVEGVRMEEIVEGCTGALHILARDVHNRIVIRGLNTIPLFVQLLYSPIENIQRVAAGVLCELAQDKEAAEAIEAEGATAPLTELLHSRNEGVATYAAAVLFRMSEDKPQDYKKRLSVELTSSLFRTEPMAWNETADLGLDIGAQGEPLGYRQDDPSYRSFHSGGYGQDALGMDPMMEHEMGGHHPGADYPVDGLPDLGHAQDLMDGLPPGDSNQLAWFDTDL
Assay: fluorescence polarization competition; full-length beta-catenin + 5FAM-TCF4(10-53) probe
Starred links: 1 amine or outer side, 2 acyl side, 3 side chain; linkers in the order of their positions; H or OH if unused. Positions of bridges follow the written chain, without caps; N, C: chain ends. Non-standard residues stand in square brackets, D forms with d. Primed or numbered codes have the meaning given here. B5(10) = 2-amino-2-(pent-4-en-1-yl)hept-6-enoic acid, bis(4-pentenyl)glycine, stitching residue bearing both staples, C=CCCCC(CCCC=C)(N[*:1])C(=O)[*:2]; B5(5) = 2,2-bis(4-pentenyl)glycine, 2-amino-2-(pent-4-en-1-yl)hept-6-enoic acid (stitching residue), C=CCCCC(CCCC=C)(N[*:1])C(=O)[*:2]; PyrS2 = (S)-3-amino-1-((pent-4-en-1-yloxy)carbonyl)pyrrolidine-3-carboxylic acid, C=CCCCOC(=O)N1CC[C@@](N[*:1])(C(=O)[*:2])C1; Phe(2-Cl) = N[C@@H](Cc1ccccc1Cl)C(=O)O; Bta = N[C@@H](Cc1csc2ccccc12)C(=O)O; Lys(iPr) = CC(C)NCCCC[C@H](N)C(=O)O; αAllylPro = C=CC[C@@]1(C(=O)O)CCCN1; tBuAla = CC(C)(C)C[C@H](N)C(=O)O
Please note pEC50 is a logarithmic value: minus log10 of concentration in mol/L. Answer with that number alone.

Lab note: Ac-[αAllylPro]D[tBuAla][B5(10)]DDAAF[Lys(iPr)][PyrS2][Phe(2-Cl)][Bta]T-NH2 (staple 1-4, 4-11) [I-1279] gave pEC50 of 7.92

Memo: Ac-[αAllylPro]D[tBuAla][B5(5)]DD[Lys(iPr)]AFL[PyrS2][Phe(2-Cl)][Bta]L-NH2 (staple 1-4, 4-11; not fully specified; printed as Ac-PL3-Asp-Npg-B5-Asp-Asp-iPrLys-Ala-Phe-Leu-PyrS2-2C1F-BztA-Leu-NH2) [I-1277] , reported pEC50: 7.77
